tested on: Plasmodium falciparum; assay: MMV: Compounds (1uM) were screened in a 72hr growth assay monitored by flow cytometry both in the presence and absence of supplemental isopentenyl pyrophosphate (IPP) 200uM. Compounds which fail to show anti-malarial activity when chemically rescued by IPP are therefore specific to the apicoplast. The values are expressed as the ratio of the corresponding activity with and without IPP, respectively.; assay type: functional, W2
Each entry below lists one item and its recorded Ratio value.
recordedMetric: Ratio

{"chemicalSmiles": "CN1CCN(c2ncnc3c2[nH]c2ccc(Cl)cc23)CC1", "assayedSystem": "Plasmodium falciparum", "measValue": 0.9492}
{"chemicalSmiles": "COc1cc(-c2nc(-c3ccccc3)c(-c3ccccc3)[nH]2)cc(OC)c1O", "assayedSystem": "Plasmodium falciparum", "measValue": 1.031}
{"chemicalSmiles": "CCOc1cccc2sc(N(Cc3cccnc3)C(=O)C3CCCCC3)nc12", "assayedSystem": "Plasmodium falciparum", "measValue": 0.8788}
{"chemicalSmiles": "Cc1ccc(CN2CCC(C(=O)Nc3ccc(-c4cc5ccccc5[nH]4)cc3)CC2)o1", "assayedSystem": "Plasmodium falciparum", "measValue": 0.8636}
{"chemicalSmiles": "CC(=O)Nc1nnc(SCc2c(C)cc(C(C)(C)C)cc2C)s1", "assayedSystem": "Plasmodium falciparum", "measValue": 0.8169}
{"chemicalSmiles": "Cc1ccccc1OCCSc1nc2ccc(NC(=O)c3ccccc3)cc2s1", "assayedSystem": "Plasmodium falciparum", "measValue": 0.8842}
{"chemicalSmiles": "N=c1c2ccccc2nnn1-c1cccc(C(F)(F)F)c1", "assayedSystem": "Plasmodium falciparum", "measValue": 1.0625}
{"chemicalSmiles": "O=C(Nc1nc(-c2ccccn2)cs1)c1ccccc1Br", "assayedSystem": "Plasmodium falciparum", "measValue": 0.987}
{"chemicalSmiles": "CCCCNc1nc(NC(C)(C)C)nc(NC(C)(C)C)n1", "assayedSystem": "Plasmodium falciparum", "measValue": 1.02}
{"chemicalSmiles": "O=C(Nc1ccc(N2CCCCC2)c(Cl)c1)c1ccc(Br)o1", "assayedSystem": "Plasmodium falciparum", "measValue": 0.8784}
{"chemicalSmiles": "Cc1cc(Nc2ccc(OCc3ccccc3)cc2)nc2cc(O)ccc12", "assayedSystem": "Plasmodium falciparum", "measValue": 0.8026}

These entries and their values trace back to ChEMBL document CHEMBL2448809.
